Tested on: NCI-H929 complex spheroids, viability % test/control
Test: Anticancer human tumor NCI-H929 cell line growth inhibition [RAS];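 further: compound exposure lasted seven days before viability was read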
Conditions: curve of first compound; second compound 0.1 µM
pIC50: −log10 of the molar value.
value.kind: pIC50

// below: answered compounds
[[record]]
compound = "Cc1nc(N2CCC3(CC2)COC(C)C3N)c(CO)nc1Sc1ccnc(N)c1Cl (centres undefined) + C=CC(=O)N1CCN(c2nc(OCC3CCCN3C)nc3c(F)c(-c4nc(N)cc(C)c4C(F)(F)F)c(Cl)cc23)C(C)C1"
endpoint_result = "< 5.00"

[[record]]
compound = "C[C@@H](NC(=O)c1ncnc(N)c1Cl)c1ncc(C(=O)Nc2cc(C(F)(F)F)c(Cl)cn2)s1 + C#Cc1c(F)ccc2cc(O)cc(-c3ncc4c(N5CC6CCC(C5)N6)nc(OCC56CCCN5CC(F)C6)nc4c3F)c12"
endpoint_result = "< 5.00"

[[record]]
compound = "CC1(C)CCC(Nc2ncc(C(F)(F)F)c(-c3c[nH]c4c(P(C)(C)=O)c(C#N)ccc34)n2)CN1 (centres undefined) + C=CC(=O)N1CCN(c2nc(OCC3CCCN3C)nc3c(F)c(-c4nc(N)cc(C)c4C(F)(F)F)c(Cl)cc23)C(C)C1"
endpoint_result = 8.19

[[record]]
compound = "Cc1nc(N2CCC3(CC2)COC(C)C3N)c(CO)nc1Sc1ccnc(N)c1Cl (centres undefined) + C#Cc1c(F)ccc2cc(O)cc(-c3ncc4c(N5CC6CCC(C5)N6)nc(OCC56CCCN5CC(F)C6)nc4c3F)c12"
endpoint_result = "< 5.00"

[[record]]
compound = "Nc1ccn(C2OC(CO)C(O)C2(F)F)c(=O)n1 (centres undefined) + C#Cc1c(F)ccc2cc(O)cc(-c3ncc4c(N5CC6CCC(C5)N6)nc(OCC56CCCN5CC(F)C6)nc4c3F)c12"
endpoint_result = 7.73

[[record]]
compound = "C=CC(=O)N1CCN(c2nc(OCC3CCCN3C)nc3c(F)c(-c4nc(N)cc(C)c4C(F)(F)F)c(Cl)cc23)C(C)C1 (centres undefined) + C#Cc1c(F)ccc2cc(O)cc(-c3ncc4c(N5CC6CCC(C5)N6)nc(OCC56CCCN5CC(F)C6)nc4c3F)c12"
endpoint_result = "< 6.00"

[[record]]
compound = "CC(C)n1nc(-c2ccc3oc(N)nc3c2)c2c(N)ncnc21 + C=CC(=O)N1CCN(c2nc(OCC3CCCN3C)nc3c(F)c(-c4nc(N)cc(C)c4C(F)(F)F)c(Cl)cc23)C(C)C1"
endpoint_result = 7.19

[[record]]
compound = "CC(=O)OC12COC1CC(O)C1(C)C(=O)C(O)C3=C(C)C(OC(=O)C(O)C(NC(=O)OC(C)(C)C)c4ccccc4)CC(O)(C(OC(=O)c4ccccc4)C21)C3(C)C (centres undefined) + C#Cc1c(F)ccc2cc(O)cc(-c3ncc4c(N5CC6CCC(C5)N6)nc(OCC56CCCN5CC(F)C6)nc4c3F)c12"
endpoint_result = "> 7.50"


Query block: Look up pIC50: C=CC(=O)Nc1cc(Nc2nccc(-c3cn(C)c4ccccc34)n2)c(OC)cc1N(C)CCN(C)C + C#Cc1c(F)ccc2cc(O)cc(-c3ncc4c(N5CC6CCC(C5)N6)nc(OCC56CCCN5CC(F)C6)nc4c3F)c12
Result block: < 6.00

These entries and their values trace back to PubChem BioAssay AID2060884.
